- System name: human vasopressin V1a receptor (Homo sapiens)
- Assay notes: Receptor binding study, [3H]AVP displacement on CHO cell membranes, human V1a
- Condition summary: [3H]AVP displacement, CHO cell membrane, 25° C., one hour; read-out: Human V1a Ki
pKi: −log10 of the molar value.
Parameter: pKi

A selection of reference data follows.
Inquiry: Please give measured pKi of the following entry: CCCN(C)CCCOc1cc(C(=O)N2CC[C@@H](C)Nc3ccccc32)ccc1-c1ccc2[nH]ccc2c1 [Example 127]
Reply text: 9.68

Inquiry: Report pKi for CC1CCN(C(=O)c2ccc(-c3ccc4[nH]ccc4c3)c(OCCN3CCOCC3)c2)c2ccccc2N1 (stereo not shown) [Example 46]
Reply text: 9.62

(1) C[C@H]1CCN(C(=O)c2ccc(-c3ccc4[nH]ccc4c3)c(OCCCN3CCOCC3)c2)c2ccccc2N1 [Example 61]
(2) CCCN(C)CCCOc1cc(C(=O)N2CC[C@H](C)Nc3ccccc32)ccc1-c1ccc(NCC)c(F)c1 [Example 154]
Inquiry: Please tell me which of the two, 1 or 2 , has the higher reported pKi value. // return label of chosen record
Reply text: 1
(1: 9.66, 2: 9.40)

----------
- System name: human vasopressin V2 receptor (Homo sapiens, UniProt P30518)
- Sequence (P30518 whole entry): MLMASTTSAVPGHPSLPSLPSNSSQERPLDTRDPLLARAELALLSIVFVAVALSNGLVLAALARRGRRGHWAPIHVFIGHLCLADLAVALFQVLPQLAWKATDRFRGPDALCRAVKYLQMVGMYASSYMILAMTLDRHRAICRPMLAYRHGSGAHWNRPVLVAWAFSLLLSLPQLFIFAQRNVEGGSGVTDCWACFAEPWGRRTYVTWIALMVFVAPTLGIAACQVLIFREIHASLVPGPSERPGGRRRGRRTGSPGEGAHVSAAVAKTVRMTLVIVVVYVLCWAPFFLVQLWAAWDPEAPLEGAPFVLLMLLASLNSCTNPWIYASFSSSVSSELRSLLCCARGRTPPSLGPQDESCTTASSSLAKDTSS
- Assay notes: Receptor binding study, [3H]AVP displacement on CHO cell membranes, human V2
- Condition summary: [3H]AVP displacement, CHO cell membrane, 25° C., one hour; read-out: Human V2 Ki
Parameter: Ki (nM)

Recorded Ki, per entry:
Inquiry: State its Ki for this molecule: C[C@H]1CCN(C(=O)c2ccc(-c3ccc4[nH]ccc4c3)c(C(=O)OCCCCN(C)C)c2)c2ccccc2N1
Reply text: 29

Inquiry: Check the records and state Ki for C[C@H]1CCN(C(=O)c2ccc(-c3ccc4[nH]ccc4c3)c(OCCCN3CCC(NC=O)CC3)c2)c2ccccc2N1
Reply text: 8.7

Inquiry: Give the value of Ki reported for the following: CCCCN(C)CCCCOc1cc(C(=O)N2CC[C@H](C)Nc3ccccc32)ccc1-c1ccc2[nH]ccc2c1
Reply text: 10

(1) CC1CN(CCCOc2cc(C(=O)N3CC[C@H](C)Nc4ccccc43)ccc2-c2ccc3[nH]ccc3c2)CC(C)O1 (stereo partly shown)
(2) CCCN(C)C1CCN(CCOc2cc(C(=O)N3CC[C@H](C)Nc4ccccc43)ccc2-c2ccc3[nH]ccc3c2)CC1
(3) CCCN(C)CCCOc1cc(C(=O)N2CC[C@H](C)Nc3ccccc32)ccc1-c1ccc(NCC)c(F)c1
(4) CCCN(C)CCCOC(=O)c1cc(C(=O)N2CC[C@H](C)Nc3ccccc32)ccc1-c1ccc2[nH]ccc2c1
Inquiry: # desc sort on Ki across 4 molecules Use the labels to give the ranking in the order requested.
Reply text: 4, 3, 2, 1
(4: 172 nM, 3: 53 nM, 2: 10 nM, 1: 5.1 nM)

----------
- System name: human vasopressin V1a receptor (Homo sapiens, UniProt P37288)
- Sequence (P37288 whole entry): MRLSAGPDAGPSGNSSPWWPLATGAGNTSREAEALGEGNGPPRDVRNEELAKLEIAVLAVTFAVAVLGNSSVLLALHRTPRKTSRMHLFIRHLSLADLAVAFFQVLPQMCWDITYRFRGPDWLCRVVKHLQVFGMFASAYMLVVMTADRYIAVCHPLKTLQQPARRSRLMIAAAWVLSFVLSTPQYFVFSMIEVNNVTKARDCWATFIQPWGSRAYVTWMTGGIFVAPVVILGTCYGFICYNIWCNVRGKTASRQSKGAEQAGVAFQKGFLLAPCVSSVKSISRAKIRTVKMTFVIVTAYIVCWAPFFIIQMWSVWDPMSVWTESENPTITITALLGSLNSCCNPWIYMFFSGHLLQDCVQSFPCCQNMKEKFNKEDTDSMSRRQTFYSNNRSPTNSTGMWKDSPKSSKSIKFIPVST
- Assay notes: Receptor binding study, [3H]AVP displacement on CHO cell membranes, human V1a
- Condition summary: [3H]AVP displacement, CHO cell membrane, 25° C., one hour; read-out: Human V1a Ki
pKi: −log10 of the molar value.
Parameter: pKi

Inquiry: Given C[C@@H]1CN(CCCOc2cc(C(=O)N3CC[C@H](C)Nc4ccccc43)ccc2-c2ccc3[nH]ccc3c2)C[C@H](C)O1 , respond with its pKi.
Reply text: 9.57

Inquiry: Could you please provide reported pKi for C[C@H]1CCN(C(=O)c2ccc(-c3ccc4[nH]ccc4c3)c(OCCCN3CCCN(C)CC3)c2)c2ccccc2N1 ? Thanks!
Reply text: 9.89

Inquiry: # return recorded pKi for input CCCCN(C)CCCOc1cc(C(=O)N2CC[C@H](C)Nc3ccccc32)ccc1-c1ccc2[nH]ccc2c1
Reply text: 9.66

Inquiry: Please indicate pKi recorded for CNc1ccc(-c2ccc(C(=O)N3CC[C@H](C)Nc4ccccc43)cc2OCCCN2C(=O)CNC2=O)cc1
Reply text: 9.85

Inquiry: Please indicate pKi recorded for C[C@H]1CCN(C(=O)c2ccc(-c3ccc4[nH]ccc4c3)c(OCCCCN3CCN(C)CC3)c2)c2ccccc2N1
Reply text: 9.62

Inquiry: Supply measured pKi of CCCCN1CCN(CCCOc2cc(C(=O)N3CC[C@H](C)Nc4ccccc43)ccc2-c2ccc3[nH]ccc3c2)CC1 in your reply.
Reply text: 9.68

Inquiry: Identify the reported pKi for the following entry. C[C@H]1CCN(C(=O)c2ccc(-c3ccc4[nH]ccc4c3)c(C(=O)OCCCN(C)C)c2)c2ccccc2N1
Reply text: 9.70
